test system: PBMC; assay: Cytotoxicity against human PBMC; format: cell-based
parameter measured: CC50 (µM)
Give bare numbers, in µM.

CCCC(NC(=O)C1N(C(=O)[C@@H](NC(=O)Nc2ccccc2)C(C)(C)C)CC12Cc1ccccc1C2)C(=O)C(=O)NC1CC1 (some centres not stated): 15
C=CCNC(=O)C(=O)C(CCC)NC(=O)C1CCN1C(=O)[C@@H](NC(=O)[C@@H](NC(=O)c1cnccn1)C1CCCCC1)C(C)(C)C (some centres not stated): 27

For the 3 compounds below, give their CC50 values.
1. CCCC(NC(=O)C1N(C(=O)[C@@H](NC(=O)[C@@H](NC(=O)c2cnccn2)C2CCCCC2)C(C)(C)C)CC12CCCCC2)C(=O)C(=O)NCCF (some centres not stated)
2. CCCC(NC(=O)C1N(C(=O)[C@@H](NC(=O)C2CCCCC2)C(C)(C)C)CC12Cc1ccccc1C2)C(=O)C(=O)NC1CC1 (some centres not stated)
3. CCCC(NC(=O)C1N(C(=O)[C@@H](NC(=O)CC(C)(C)C)C(C)(C)C)CC12Cc1ccccc1C2)C(=O)C(=O)NC1CC1 (some centres not stated)

-- reply
1. 32
2. 31
3. 44

All values here come from ChEMBL document CHEMBL2440035.
